B1: TPR t1 (parent)
chain: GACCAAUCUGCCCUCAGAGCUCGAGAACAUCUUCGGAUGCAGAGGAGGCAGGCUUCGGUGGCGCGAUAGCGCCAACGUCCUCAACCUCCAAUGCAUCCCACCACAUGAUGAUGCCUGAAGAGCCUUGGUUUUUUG

Variants of: B1
Method: polymerase ribozyme fitness, log enrichment relative to wild type (log ratio); higher = more active; in vitro selection for triplet polymerase activity
Short version: polymerase ribozyme fitness (log ratio) at least -2 is 1.0, less is 0.0.

Prompt line: Test whether the variant G35U A74G C89U C115A records polymerase ribozyme fitness (log ratio) of -2 or higher.
Response line: 0.0

Each recorded value in this set is attributed to the RNAGym collection of RNA variant scans (doi:10.1073/pnas.2313332121).
